test-system: Human GLP-1 receptor (Homo sapiens)
Construct: expressed in transfected cells
test-name: Measurement of GLP-1 receptor agonist activity (cAMP assay)
Format: cell-based
run-conditions: CHO-K1, hGLP-1R/CHO-K1 cells, cAMP; 100% = human GLP-1 (7-36) at 2 nM, 0% = DMSO only; read-out: Emax(%)
measured-parameter: Emax (%)

Observe how each entry below is paired with its result.
Qu. Which measured Emax belongs to C[C@H]1c2cc(OCc3ccc(Cl)cc3F)c(C(F)(F)F)cc2CCN1Cc1nc2ccc(C(=O)O)nc2n1C[C@@H]1CCO1 [Compound I-037] , tested on Human GLP-1 receptor (Homo sapiens)?
Ans. 126

Qu. Human GLP-1 receptor (Homo sapiens) / Emax / COc1cc(Cl)ccc1COc1cc2c(cc1C(F)(F)F)CCN(Cc1nc3c(F)cc(C(=O)O)cc3n1C[C@@H]1CCO1)[C@H]2C [Compound I-208] : value?
Ans. 109

Qu. Param readout = Emax; param system = Human GLP-1 receptor (Homo sapiens); param query = O=C(O)c1ccc2nc(CN3CCc4cc(C(F)(F)F)c(OCc5ccc(C6CC6)cc5)cc4C3)n(C[C@@H]3CCO3)c2c1 [Compound I-102] ; response: value
Ans. 106

Qu. Hi! What's the reported Emax for C[C@H]1c2cc(OCc3c(F)cc(F)cc3F)c(C(F)(F)F)cc2CCN1Cc1nc2ccc(C(=O)O)cc2n1C[C@@H]1CCO1 [Compound I-124] on Human GLP-1 receptor (Homo sapiens)?
Ans. 102

1: O=C(O)c1ccc2nc(Cc3cc(F)c4nc(C(F)(F)F)c(OCc5ccc(Cl)cc5F)nc4c3)n(C[C@@H]3CCO3)c2c1 [Compound I-127]
2: C[C@@H]1c2cc(OCc3ccc(Cl)cc3F)c(C(F)(F)F)cc2CCN1Cc1nc2ccc(C(=O)O)cc2n1C[C@@H]1CCO1 [Compound I-036]
Qu. // compare measured Emax, left 1 , right 2 , return larger Give the label under which the chosen entry appears.
Ans. 1

---

test-system: Human GLP-1 receptor (Homo sapiens, UniProt P43220)
Construct: expressed in transfected cells
Sequence (P43220 24-463): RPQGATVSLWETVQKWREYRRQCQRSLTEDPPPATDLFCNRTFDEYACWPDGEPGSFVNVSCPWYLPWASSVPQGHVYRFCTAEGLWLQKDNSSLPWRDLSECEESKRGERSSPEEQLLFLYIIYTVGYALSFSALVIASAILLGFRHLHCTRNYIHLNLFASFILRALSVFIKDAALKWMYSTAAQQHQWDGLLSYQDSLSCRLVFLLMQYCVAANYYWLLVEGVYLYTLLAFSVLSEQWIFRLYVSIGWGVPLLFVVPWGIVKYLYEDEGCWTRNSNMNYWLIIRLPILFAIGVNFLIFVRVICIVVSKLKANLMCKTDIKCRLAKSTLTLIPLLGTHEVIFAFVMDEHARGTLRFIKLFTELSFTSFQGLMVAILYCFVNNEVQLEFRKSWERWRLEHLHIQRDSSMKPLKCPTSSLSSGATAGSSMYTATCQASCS
test-name: Measurement of GLP-1 receptor agonist activity (cAMP assay)
Format: cell-based
run-conditions: hGLP-1R/CHO-K1 cells, cAMP increase, 37° C. 1 hour
measured-parameter: EC50 (nM)

Guide cases for EC50, answers given:
Qu. Reported EC50 for O=C(NS(=O)(=O)C1CC1)c1ccc2nc(CN3CCc4cc(C(F)(F)F)c(OCc5ccc(Cl)cc5F)cc4C3)n(C[C@@H]3CCO3)c2c1 [Compound I-055] : what is it?
Ans. 78.8

Qu. Fill in the blank: the reported EC50 of C[C@@H]1c2cc(OCc3ccc(Cl)cc3F)c(C(F)(F)F)cc2CCN1Cc1nc2ccc(C(=O)O)cc2n1C[C@@H]1CCO1 [Compound I-036] is ____.
Ans. 99.5

Qu. Would you mind telling me what EC50 value was observed for Cn1cc(COc2cc3c(cc2C(F)(F)F)CCN(Cc2nc4ccc(C(=O)O)cc4n2C[C@@H]2CCO2)C3)cn1 [Compound I-071] ?
Ans. 63.9

Qu. Give the measured EC50 of Cc1csc(COc2cc3c(cc2C(F)(F)F)CCN(Cc2nc4ccc(C(=O)O)c(F)c4n2C[C@@H]2CCO2)[C@H]3C)n1 [Compound I-192] .
Ans. 1.2

Qu. Quick one: EC50 for C[C@H]1c2cc(OCc3ccc(C#N)cc3F)c(C(F)(F)F)cc2CCN1Cc1nc2ccc(C(=O)O)cc2n1C[C@@H]1CCO1 [Compound I-170] ?
Ans. 1.24

P: O=C(O)c1ccc2nc(CN3CCc4cc(C(F)(F)F)c(OCc5ccc(C(F)(F)F)cn5)cc4C3)n(C[C@@H]3CCO3)c2c1 [Compound I-135]
Q: C[C@H]1c2cc(OCc3ccc(Cl)cc3)c(C(F)(F)F)cc2CCN1Cc1nc2ccc(C(=O)O)c(F)c2n1C[C@@H]1CCO1 [Compound I-193]
Qu. // which entry reports the smaller EC50, P or Q ? Pick one; state its label.
Ans. Q

I: COc1ccc(COc2cc3c(cc2C(F)(F)F)CCN(Cc2nc4ccc(C(=O)O)nc4n2C[C@@H]2CCO2)[C@H]3C)cc1 [Compound I-175]
II: O=C(O)c1ccc2nc(CN3CCc4cc(C(F)(F)F)c(OCc5c(F)cc(Cl)cc5F)cc4C3)n(C[C@@H]3CCO3)c2c1 [Compound I-101]
Qu. Between I and II , whose measured EC50 reads higher? Reply with the label of the item you choose.
Ans. I

---

test-system: Human GLP-1 receptor (Homo sapiens, UniProt P43220)
Construct: expressed in transfected cells
test-name: Measurement of GLP-1 receptor agonist activity (cAMP assay)
Assay type: cell-based
run-conditions: CHO-K1, hGLP-1R/CHO-K1 cells, cAMP; 100% = human GLP-1 (7-36) at 2 nM, 0% = DMSO only; read-out: Emax(%)
measured-parameter: Emax (%)

Qu. Lookup: Emax / Human GLP-1 receptor (Homo sapiens, UniProt P43220) / C[C@H]1c2cc(OCc3ccc(F)cc3)c(C(F)(F)F)cc2CCN1Cc1nc2ccc(C(=O)O)cc2n1C[C@@H]1CCO1
Ans. 97.7

Qu. Quick check: Emax on Human GLP-1 receptor (Homo sapiens, UniProt P43220), item O=C(O)c1ccc2nc(CN3CCc4cc(C(F)(F)F)c(OCc5ccn(C(F)F)n5)cc4C3)n(C[C@@H]3CCO3)c2c1 ?
Ans. 92

Qu. State its Emax on Human GLP-1 receptor (Homo sapiens, UniProt P43220): O=C(O)c1ccc2nc(CN3CCc4cc(C(F)(F)F)c(OCc5ccc(Cl)cc5C(F)(F)F)cc4C3)n(C[C@@H]3CCO3)c2c1
Ans. 90.7

Qu. What value of Emax on Human GLP-1 receptor (Homo sapiens, UniProt P43220) does C[C@H]1c2cc(OCc3cc(F)c(Cl)cc3F)c(C(F)(F)F)cc2CCN1Cc1nc2ccc(C(=O)O)nc2n1C[C@@H]1CCO1 have?
Ans. 106

Qu. Request - read-out Emax | tested on Human GLP-1 receptor (Homo sapiens, UniProt P43220) | compound Cc1c(Cc2nc3ccc(C(=O)O)cc3n2C[C@@H]2CCO2)ccc2nc(C(F)(F)F)c(OCc3ccc(Cl)cc3F)nc12
Ans. 105

Qu. Give Emax (Human GLP-1 receptor (Homo sapiens, UniProt P43220)) of the following compound: N#Cc1ccc(COc2cc3c(cc2C(F)(F)F)CCN(Cc2nc4ccc(C(=O)O)cc4n2C[C@@H]2CCO2)C3)cc1
Ans. 113

---

test-system: Human GLP-1 receptor (Homo sapiens)
Construct: expressed in transfected cells
test-name: Measurement of GLP-1 receptor agonist activity (cAMP assay)
Assay type: cell-based
run-conditions: cAMP increase in GLP-1 R/CHO-K1 cells; 2 nM human GLP-1 (7-36) = 100%, DMSO only = 0%
pEC50: −log10 of the molar value.
measured-parameter: pEC50

Please review the following examples before continuing.
Qu. Form: Entry = C[C@H]1c2nc(OCc3ccc(Cl)cc3Cl)c(C(F)(F)F)cc2CCN1Cc1nc2ccc(C(=O)O)c(F)c2n1C[C@@H]1CCO1 | System = Human GLP-1 receptor (Homo sapiens) | pEC50 = ____
Ans. 10.25

Qu. Give the reported pEC50 for Cc1ccc(COc2nc3c(cc2C(F)(F)F)CCN(Cc2nc4ccc(C(=O)O)c(F)c4n2C[C@@H]2CCO2)[C@H]3C)cc1 (system: Human GLP-1 receptor (Homo sapiens)).
Ans. 10.25

1: C[C@H]1c2nc(OCc3cc(F)c(Cl)cc3F)c(C(F)(F)F)cc2CCN1Cc1nc2ccc(C(=O)O)c(F)c2n1C[C@@H]1CCO1
2: O=C(O)c1ccc2nc(CN3CCc4cc(C(F)(F)F)c(OCc5ccc(Cl)cc5Cl)nc4C3)n(C[C@@H]3CCO3)c2c1
3: C[C@H]1c2nc(OCc3cc(F)c(Cl)cc3F)c(C(F)(F)F)cc2CCN1Cc1nc2ccc(C(=O)O)nc2n1C[C@@H]1CCO1
4: O=C(O)c1ccc2nc(CN3CCc4cc(C(F)(F)F)c(OCc5ccc(F)cc5F)nc4C3)n(C[C@@H]3CCO3)c2c1
Qu. Please list these in order of increasing pEC50. Thank you! # answer = labels listed in requested order
Ans. 4, 2, 3, 1
(4: 8.71, 2: 8.94, 3: 9.91, 1: 10.22)

---

test-system: Human GLP-1 receptor (Homo sapiens)
Construct: expressed in transfected cells
test-name: Measurement of GLP-1 receptor agonist activity (cAMP assay)
Type: cell-based
run-conditions: CHO-K1, hGLP-1R/CHO-K1 cells, cAMP; 100% = human GLP-1 (7-36) at 2 nM, 0% = DMSO only; read-out: Emax(%)
Method: Test Example 1: (Measurement of GLP-1 Receptor Agonist Activity) Human GLP-1 receptor stably expressing cells (hGLP-1R/CHO-K1 cells) are cultured in an α-MEM medium (Sigma) containing 10% FBS (Hyclone), 2% GlutaMAX (Gibco), 1% G418 (Nacalai Tesque), and 1% Penicillin-Streptomycin Mixed Solution (Sigma) at 37° C. under 5% CO2 conditions, and recovered by treating a 10 fold diluted 5.0 g/l-trypsin/5.3 mmol/l-EDTA solution (Nacalai Tesque) and cryopreserved. […]
measured-parameter: Emax (%)

Qu. Query for Human GLP-1 receptor (Homo sapiens): what Emax does the record show for Cc1cc2c(cc1OCc1ccc(Cl)cc1F)C(=O)N(Cc1nc3ccc(C(=O)O)nc3n1C[C@@H]1CCO1)CC2 ?
Ans. 92.7

Qu. Reported Emax for Human GLP-1 receptor (Homo sapiens), given C[C@H]1c2cc(OCc3ccc(C#N)cc3F)c(C(F)(F)F)cc2CCN1Cc1nc2ccc(C(=O)O)nc2n1C[C@@H]1CCO1 ?
Ans. 111

Qu. Kindly state the measured Emax obtained for O=C(O)c1ccc2nc(CN3CCc4cc(C(F)(F)F)c(OCc5cc(F)c(F)cc5F)cc4C3)n(C[C@@H]3CCO3)c2c1 with Human GLP-1 receptor (Homo sapiens).
Ans. 112
